- EXPERIMENTAL_TARGET: Muscarinic acetylcholine receptor M1 (Homo sapiens)
- ASSAY_CONDITIONS: HEK293, at 10 µM

MOLECULE	EXPERIMENTAL_TARGET	Efficacy (%)
CN1CCC=C(C2=NOC(N3CCCC3=O)C2)C1 (stereo not given)	Muscarinic acetylcholine receptor M1 (Homo sapiens)	99.5
CN1CCC=C(C2=NOC(O)C2)C1 (stereo not given)	Muscarinic acetylcholine receptor M1 (Homo sapiens)	36.9
CN1CCC=C(C2=NOC(Sc3ccccc3)C2)C1 (stereo not given)	Muscarinic acetylcholine receptor M1 (Homo sapiens)	2.3
CN1CCCC(C2=NOC(N3CCCC3=O)C2)C1 (stereo not given)	Muscarinic acetylcholine receptor M1 (Homo sapiens)	2.2
CN1CCC=C(c2ccon2)C1	Muscarinic acetylcholine receptor M1 (Homo sapiens)	95.8
O=C1CCCN1C1CC(CN2CCCCC2)=NO1 (stereo not given)	Muscarinic acetylcholine receptor M1 (Homo sapiens)	2.2
O=C1CCCN1C1CC(CCN2CCCCC2)=NO1 (stereo not given)	Muscarinic acetylcholine receptor M1 (Homo sapiens)	2.2
O=C1CCCN1C1CC(CCN2CCCC2)=NO1 (stereo not given)	Muscarinic acetylcholine receptor M1 (Homo sapiens)	2.2
CN1CCC=C(C2=NOC(C#N)C2)C1 (stereo not given)	Muscarinic acetylcholine receptor M1 (Homo sapiens)	58.8
O=C1CCCN1CC#CCN1CCCC1	Muscarinic acetylcholine receptor M1 (Homo sapiens)	108
CO/N=C/C1=CCCN(C)C1	Muscarinic acetylcholine receptor M1 (Homo sapiens)	83
CSCC1CC(C2=CCCN(C)C2)=NO1 (stereo not given)	Muscarinic acetylcholine receptor M1 (Homo sapiens)	61.3
CCOC1CC(C2=CCCN(C)C2)=NO1 (stereo not given)	Muscarinic acetylcholine receptor M1 (Homo sapiens)	2.4
CN1CCC=C(C2=NOC(CO)C2)C1 (stereo not given)	Muscarinic acetylcholine receptor M1 (Homo sapiens)	1.7
O=C1CCCN1C1CC(CN2CCCC2)=NO1 (stereo not given)	Muscarinic acetylcholine receptor M1 (Homo sapiens)	2.2
